Cited source for all entries: patent US20220002314A1

molecular target: Human α2δ-1 subunit of Cav2.2 calcium channel (Homo sapiens, UniProt P54289); test: biochemical; format: binding
Sequence (P54289 25-1103): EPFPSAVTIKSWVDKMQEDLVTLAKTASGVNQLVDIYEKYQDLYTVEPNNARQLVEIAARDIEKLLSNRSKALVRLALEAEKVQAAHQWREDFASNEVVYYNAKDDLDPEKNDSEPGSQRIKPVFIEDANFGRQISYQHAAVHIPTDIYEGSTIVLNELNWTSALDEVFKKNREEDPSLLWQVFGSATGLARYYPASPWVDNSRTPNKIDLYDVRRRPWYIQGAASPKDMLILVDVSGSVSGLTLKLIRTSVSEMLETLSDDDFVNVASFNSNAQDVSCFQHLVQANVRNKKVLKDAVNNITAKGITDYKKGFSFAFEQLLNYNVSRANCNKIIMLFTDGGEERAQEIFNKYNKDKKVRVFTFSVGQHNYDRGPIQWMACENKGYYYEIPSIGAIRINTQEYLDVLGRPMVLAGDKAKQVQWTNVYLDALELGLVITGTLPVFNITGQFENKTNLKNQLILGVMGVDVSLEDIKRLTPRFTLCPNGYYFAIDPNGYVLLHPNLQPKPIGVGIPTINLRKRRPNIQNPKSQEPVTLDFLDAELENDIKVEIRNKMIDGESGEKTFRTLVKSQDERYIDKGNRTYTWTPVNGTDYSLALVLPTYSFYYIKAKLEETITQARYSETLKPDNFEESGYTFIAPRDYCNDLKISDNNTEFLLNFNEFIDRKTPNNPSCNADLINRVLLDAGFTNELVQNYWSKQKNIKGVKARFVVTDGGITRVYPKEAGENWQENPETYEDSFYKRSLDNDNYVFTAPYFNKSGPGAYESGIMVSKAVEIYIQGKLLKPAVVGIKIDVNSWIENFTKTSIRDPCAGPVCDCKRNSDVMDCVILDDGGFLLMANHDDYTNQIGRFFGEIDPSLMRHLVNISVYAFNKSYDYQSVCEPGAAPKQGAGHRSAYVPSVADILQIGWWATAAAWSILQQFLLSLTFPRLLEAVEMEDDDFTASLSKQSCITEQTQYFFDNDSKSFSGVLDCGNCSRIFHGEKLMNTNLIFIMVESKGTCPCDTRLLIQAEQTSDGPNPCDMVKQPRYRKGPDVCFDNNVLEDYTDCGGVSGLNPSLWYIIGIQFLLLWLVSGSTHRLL
property_label: Ki

[[record]]
compound = "CCC[C@H](c1nc2ccc(Cl)cc2c(=O)n1CC)N1CCN[C@@H](CF)C1"
property_label = "Ki"
assay_result = "500 to 5000 nM"

[[record]]
compound = "CCC[C@@H](c1nc2ccncc2c(=O)n1CC)N1CCN[C@H](C)C1"
property_label = "Ki"
assay_result = "> 5000 nM"

[[record]]
compound = "CCC[C@H](c1nc2ncc(Cl)cc2c(=O)n1CC)N1CCN[C@@H](C)C1"
property_label = "Ki"
assay_result = "< 500 nM"

[[record]]
compound = "CCCC(c1nc2ccc(Br)cc2c(=O)n1CC)N1C[C@@H](C)N[C@@H](C)C1 (some centres unmarked)"
property_label = "Ki"
assay_result = "< 500 nM"

[[record]]
compound = "CCC[C@H](c1nc2cc(O[C@@H](CNC)c3ccccc3)ccc2c(=O)n1C)N1C[C@@H](C)N[C@@H](C)C1"
property_label = "Ki"
assay_result = "500 to 5000 nM"

[[record]]
compound = "CCC[C@@H](c1nc2cc(O[C@H](CCNC)c3ccccc3)ccc2c(=O)n1C)N1C[C@@H](C)N[C@@H](C)C1"
property_label = "Ki"
assay_result = "500 to 5000 nM"

[[record]]
compound = "CCC[C@H](c1nc2ccncc2c(=O)n1CC)N1CCN[C@H](C)C1"
property_label = "Ki"
assay_result = "< 500 nM"

[[record]]
compound = "CCC[C@H](c1nc2cc(F)c(Br)cc2c(=O)n1CC)N1CCN[C@@H](C)C1"
property_label = "Ki"
assay_result = "< 500 nM"

